tested on: NCI-H226 lung; test: NCI-60 one-dose screen, 48 h (100 = growth as untreated, 0 = no growth, -100 = all killed); details: 10 µM unless noted
The panel holds about 83,000 compounds, 20% with a hit somewhere; the sample as a whole holds those more often. The source made the active and inactive calls. The calls were made as follows: active = growth percent below 10; inactive = the rest.
endpoint-name: growth

molecule=C#C[C@@]1(O)[C@@H](CO)O[C@@H](n2cc(Br)c3c(N)ncnc32)[C@@H]1O target_under_test="NCI-H226 lung" endpoint_name=growth reported_value="21.2% (inactive)"
molecule=Oc1ccc(CNNc2ccnc3c(O)cccc23)c2cccnc12 target_under_test="NCI-H226 lung" endpoint_name=growth reported_value="86.7% (inactive)"
molecule=CC(=O)Oc1ccc(O)cc1 target_under_test="NCI-H226 lung" endpoint_name=growth reported_value="106% (inactive)"
molecule=NC(=O)C(O)(c1ccccc1)c1ccccc1 target_under_test="NCI-H226 lung" endpoint_name=growth reported_value="99.2% (inactive)"
molecule=CNCc1cccc2c1OCCOCCOCCN(CCN1CCOCC1)S(=O)(=O)c1ccc(cc1)-c1cnc(N)c(n1)C(=O)N2 target_under_test="NCI-H226 lung" endpoint_name=growth reported_value="78.4% (inactive)"
molecule="COC(=O)c1cc2c3c(cc(O)c2[nH]1)N(C(=O)C1Cc2cc(OC)c(OC)c(OC)c2N1)CC3CCl (stereo not given)" target_under_test="NCI-H226 lung" endpoint_name=growth reported_value="-35.1% (active)"
molecule=COc1ccc(-n2nc(C(=O)NCC(=O)O)nc2-c2ccccc2)cc1 target_under_test="NCI-H226 lung" endpoint_name=growth reported_value="105% (inactive)"
molecule=COC(=O)c1ccc2c(c1)n(Cc1ccc3ccccc3c1)c[n+]2Cc1ccc2ccccc2c1 target_under_test="NCI-H226 lung" endpoint_name=growth reported_value="61.3% (inactive)"
molecule=CCCCc1n(Cc2ccc3ccccc3n2)cc[n+]1Cc1ccc2ccccc2c1 target_under_test="NCI-H226 lung" endpoint_name=growth reported_value="14.2% (inactive)"
molecule=CC1CCN(CCCCCOc2ccc3oc4cc(Cl)ccc4c(=O)c3c2)CC1 target_under_test="NCI-H226 lung" endpoint_name=growth reported_value="113% (inactive)"

* * *

Measured growth of individual entries
System: SK-MEL-5 melanoma
Assay: NCI-60 one-dose screen, 48 h (100 = growth as untreated, 0 = no growth, -100 = all killed)
Details: 10 µM unless noted
Protocol: Growth inhibition of the SK-MEL-5 human tumor cell line is measured as a screen for anti-cancer activity. Cells are grown in 96 well plates and exposed to the test compound for 48 hours. Compounds are tested at a single concentration, which is 10^-5 M for most compounds. The reported endpoint is percent growth (GI% or GIPRCNT), where numbers from 0 - 100% represent growth inhibition, and numbers from -100% - 0 represent cell death. For example, a value of 40 represents 60% growth inhibition. […]
This is part of a sample that, as a whole, favours compounds with a hit. Of some 83,000 tested, about 20% had one in any assay.
endpoint-name: growth (%)

molecule=C#C[C@@]1(O)[C@@H](CO)O[C@@H](n2cc(Cl)c3c(N)ncnc32)[C@@H]1O target_under_test="SK-MEL-5 melanoma" reported_value=-61
molecule=CS(=O)(=O)O[C@@H]1C(=O)N(c2cc3c4ccccc4ccc3c3ccccc23)[C@H]1c1ccc(F)cn1 target_under_test="SK-MEL-5 melanoma" reported_value=13.6
molecule=COc1cc2nc3c(=O)n(-c4ccc(C#N)cc4)cnn3c(=O)c2cc1OC target_under_test="SK-MEL-5 melanoma" reported_value=96.1
molecule=C/C(=N/Nc1nc2ccccc2n1C)c1ccccn1 target_under_test="SK-MEL-5 melanoma" reported_value=-6.67
molecule=Nc1n[nH]c2cccc(C#Cc3cccc(NC(=O)c4cc(N5CCOCC5)cc(C(F)(F)F)c4)c3)c12 target_under_test="SK-MEL-5 melanoma" reported_value=55.7
molecule=COc1ccc2c(c1)/C(=C1\S/C(=N/c3nnc(C)s3)NC1=O)C(=O)N2Cc1ccc(Cl)cc1 target_under_test="SK-MEL-5 melanoma" reported_value=30.9
molecule="N#CC1C(c2ccc(Cl)cc2)=Nc2c(c(-c3ccccc3)nn2-c2ccccc2)C12C(=O)Nc1ccc(Cl)cc12 (centres undefined)" target_under_test="SK-MEL-5 melanoma" reported_value=46.5
molecule=O=C(Nc1cccc(-c2cccc(F)c2)c1)C1CCN(Cc2cccc3cccnc23)CC1 target_under_test="SK-MEL-5 melanoma" reported_value=35.2
molecule=Nc1c(C(=O)Nc2cccc3ccccc23)sc2nc3c(cc12)COCC3 target_under_test="SK-MEL-5 melanoma" reported_value=31

* * *

tested on: SK-MEL-5 melanoma; test: NCI-60 one-dose screen, 48 h (100 = growth as untreated, 0 = no growth, -100 = all killed); conditions: 10 µM unless noted
About 83,000 compounds went through this panel and 20% of them were active in at least one assay; those are over-represented in the sample as a whole.
endpoint-name: growth (%)

structure_notation=O=C(CCc1nnc2sc(OCc3ccccc3)nn12)c1nc2ccc([N+](=O)[O-])cc2[nH]1 target_under_test="SK-MEL-5 melanoma" endpoint_name=growth unit_text=% reported_value=110
structure_notation=C=C1C(=O)O[C@H]2[C@H]1CC/C(COC(=O)/C=C/c1cccnc1)=C\CC[C@@]1(C)O[C@@H]21 target_under_test="SK-MEL-5 melanoma" endpoint_name=growth unit_text=% reported_value=68.2
structure_notation=O=C(CCc1nnco1)c1nc2ccc([N+](=O)[O-])cc2[nH]1 target_under_test="SK-MEL-5 melanoma" endpoint_name=growth unit_text=% reported_value=109
structure_notation=Cc1cc(C)c2nc(Nc3nc(C)c(C)c(=O)[nH]3)nc(C)c2c1 target_under_test="SK-MEL-5 melanoma" endpoint_name=growth unit_text=% reported_value=2.14
structure_notation=O=C1Nc2ccc(Cl)cc2/C1=N/c1nc(-c2ccc(Cl)cc2)cs1 target_under_test="SK-MEL-5 melanoma" endpoint_name=growth unit_text=% reported_value=8.24

* * *

tested on: OVCAR-3 ovarian; assay: NCI-60 one-dose screen, 48 h; conditions: 10 µM unless noted
This is part of a sample that, as a whole, favours compounds with a hit. Of some 83,000 tested, about 20% had one in any assay. Active and inactive are the calls of the source. The calls were made as follows: active = growth percent below 10; inactive = the rest.
Possible outcomes: label 1 for active, label 0 for inactive

molecule="CCCCCCCCCCCCCC1=NCC[N+]1(CCO)Cc1ccccc1 (centres undefined)" label_value="label 1"
molecule=COC(=O)/C=C1\SC(=Nc2ccc(C(F)(F)F)cc2)N(CCc2c[nH]c3ccccc23)C1=O label_value="label 1"
molecule=N#Cc1c(-c2ccc(F)cc2)c(C#N)c2c(C#N)c(N)nn2c1N label_value="label 0"
molecule=Cc1cc(Cl)cc(CN(Cc2ccccc2)Cc2c(O)ccc3ccccc23)c1O label_value="label 0"
molecule=COc1ccc(-c2cs/c(=N\N=C\c3ccc(O)cc3O)n2/N=C/c2ccc(O)cc2O)cc1 label_value="label 1"
molecule="CCOC(=O)C1=C(C)n2nc(CC#N)c(C#N)c2NC1c1ccc(CC)cc1 (centres undefined)" label_value="label 0"
molecule=COc1cc(/C=N/Nc2nc(-c3ccc(F)cc3)c(C#N)c(N3CCOCC3)n2)ccc1O label_value="label 0"
molecule=C=CCn1c(SCC(=O)Nc2ccc(C(=O)/C=C/c3ccc(Cl)cc3)cc2)nnc1-c1cc(OC)c(OC)c(OC)c1 label_value="label 0"
molecule=CC(=O)[C@@H]1CC[C@]2(C(=O)O)CC[C@]3(C)[C@H](CC[C@@H]4[C@@]5(C)Cc6c([nH]c7ccccc67)C(C)(C)[C@@H]5CC[C@]43C)[C@@H]12 label_value="label 0"

* * *

system: OVCAR-3 ovarian; assay: NCI-60 one-dose screen, 48 h (100 = growth as untreated, 0 = no growth, -100 = all killed); conditions: 10 µM unless noted
About 83,000 compounds went through this panel and 20% of them were active in at least one assay; those are over-represented in the sample as a whole.
Measured growth of individual entries
endpoint-name: growth (%)

molecule="COc1ccc2c(c1)Oc1nc(N)c(C#N)c(N)c1C2Sc1ccc(O)cc1 (stereo not given)" reported_value=79.7
molecule=NC(N)=NC(N)=Nc1cc2ccccc2c2ccccc12 reported_value=63.2
molecule=C#CCN1C(=O)c2ccccc2N(CC#C)C12CCN(Cc1cn(CC(=O)Nc3ccccc3C(N)=O)nn1)CC2 reported_value=84.4
molecule=CCCCn1c(=O)c(/C=C/C(=O)/C=C/c2cc3ccccc3n(CCCC)c2=O)cc2ccccc21 reported_value=-15.7
molecule=O=C(Nc1ccccc1)NS(=O)(=O)c1c[nH]c(=S)[nH]c1=O reported_value=110

* * *

system: SK-OV-3 ovarian; experiment: NCI-60 one-dose screen, 48 h (100 = growth as untreated, 0 = no growth, -100 = all killed); conditions: 10 µM unless noted
Compounds without any hit were thinned out: in the full panel of roughly 83,000, 20% have a hit.
endpoint-name: growth (%)

structure_notation=Cn1nc(C(F)(F)F)c(-c2cc(C(F)(F)F)cc(C(F)(F)F)c2)c1-c1ccc(OCc2ccc(Cl)cc2)cc1O unit_text=% reported_value=-13.5
structure_notation=COc1ccc(/C=C/C(=O)c2ccc(NC(=O)CSc3nnc(-c4ccc(OC)c(OC)c4)n3-c3ccccc3)cc2)cc1 unit_text=% reported_value=85.1
structure_notation=C#C[C@@]1(O)[C@@H](CO)O[C@@H](n2cnc3c(-c4ccccc4)ncnc32)[C@@H]1O unit_text=% reported_value=105
structure_notation=Nc1c(C(=O)c2ccccc2)sc2nc(-c3cc4ccccc4o3)cc(-c3ccc(Cl)cc3)c12 unit_text=% reported_value=106
structure_notation=N#Cc1c(-c2ccc(Cl)cc2)cc(-c2cc3ccccc3o2)nc1SCC(=O)c1ccc(Cl)cc1 unit_text=% reported_value=103
structure_notation=CN1CCN(CC#CCOC(=O)CNC(=O)[C@]23CCC(C)(C)C[C@H]2C2=CC[C@@H]4[C@@]5(C)CC[C@H](O)C(C)(C)[C@@H]5CC[C@@]4(C)[C@]2(C)CC3)CC1 unit_text=% reported_value=86.2
structure_notation=COc1ccc(-c2cn(-c3ccc(Cl)cc3)c(=S)[nH]2)cc1OC unit_text=% reported_value=79.3
structure_notation=COc1ccc(NC(=O)Nc2ccc(Nc3nc(C)cc(Nc4ccc(C)cc4)n3)cc2)cc1 unit_text=% reported_value=69
structure_notation=O=C(O)C(C(=O)O)c1cccc2ccccc12 unit_text=% reported_value=101
structure_notation=COc1ccc2cc(/C=C3\N=C(c4cc(OC)c(OC)c(OC)c4)OC3=O)c(OC)nc2c1 unit_text=% reported_value=96.5
structure_notation=O=c1[nH]nc(-c2ccccc2)c2sc(NC(=S)Nc3ccc(Cl)cc3)nc12 unit_text=% reported_value=62.3
structure_notation=C#Cc1ccccc1NC(=O)c1sc2nc3c(cc2c1N)CCCCCC3 unit_text=% reported_value=36.9
structure_notation=Nc1c(C(=O)Nc2ccccn2)sc2nc3c(cc12)C(=O)CCC3 unit_text=% reported_value=40.3
structure_notation=CC(=O)c1ccc(NC(=O)CSc2nnc(-c3cc(-c4ccc(C)cc4)nc4ccccc34)o2)cc1 unit_text=% reported_value=81.7
structure_notation=CCN1CCC[C@H]1c1cc(O)c2c(c1OC)C[C@H]1C[C@H]3[C@H](N)C(=O)C(C(N)=O)=C(O)[C@@]3(O)C(=O)C1=C2O unit_text=% reported_value=-1.89
structure_notation=COc1ccc2[nH]c(=O)c(/C=C/C(=O)/C=C/c3ccc(O)c(OC)c3)cc2c1 unit_text=% reported_value=56.5
structure_notation=Oc1ccccc1-c1nc2c3ccccc3c3ccccc3c2o1 unit_text=% reported_value=90.4
structure_notation=Cc1cc(Cl)cc(CN(Cc2ccccc2)Cc2c(O)ccc3ccccc23)c1O unit_text=% reported_value=97.2
